# studyTarget: Cholinesterase (Homo sapiens)
# Sequence (P06276 whole entry): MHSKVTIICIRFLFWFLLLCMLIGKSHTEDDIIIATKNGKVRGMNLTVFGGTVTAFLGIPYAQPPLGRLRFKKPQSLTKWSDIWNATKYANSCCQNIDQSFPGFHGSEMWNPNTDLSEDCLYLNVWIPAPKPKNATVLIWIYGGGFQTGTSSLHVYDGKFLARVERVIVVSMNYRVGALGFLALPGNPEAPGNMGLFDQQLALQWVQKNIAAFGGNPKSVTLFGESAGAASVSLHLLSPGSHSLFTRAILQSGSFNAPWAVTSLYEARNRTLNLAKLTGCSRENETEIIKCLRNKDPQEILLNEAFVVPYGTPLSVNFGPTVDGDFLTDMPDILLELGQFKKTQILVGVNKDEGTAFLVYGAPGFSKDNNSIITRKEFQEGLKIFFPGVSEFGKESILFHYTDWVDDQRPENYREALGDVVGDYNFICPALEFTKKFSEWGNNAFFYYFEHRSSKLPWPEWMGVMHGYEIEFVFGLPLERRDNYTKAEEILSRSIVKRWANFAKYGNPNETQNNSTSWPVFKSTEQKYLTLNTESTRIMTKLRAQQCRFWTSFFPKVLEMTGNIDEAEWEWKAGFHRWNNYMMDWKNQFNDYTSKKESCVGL
# assay: Inhibition of human serum BuChE using S-butyrylthiocholine iodide as substrate preincubated for 5 mins followed by substrate addition measured at 1 to 3 mins time interval by Ellman's method
Could you mark each record condition met if its IC50 falls strictly under 10 µM, and condition not met if it equals or exceeds it?

{"testSmiles": "CN(C)CCOc1ccc(/C=C2\\COc3ccccc3C2=O)cc1", "classAssignment": "condition met"}
{"testSmiles": "CCN(CC)CCCCCCOc1ccc(/C=C2\\COc3ccccc3C2=O)cc1", "classAssignment": "condition met"}
{"testSmiles": "CN(C)CCCOc1cccc(/C=C2\\COc3ccccc3C2=O)c1", "classAssignment": "condition not met"}

Is the reported IC50 for CCN(CC)CCCCOc1ccc(/C=C2\COc3ccccc3C2=O)cc1 strictly below 10 µM?
condition not met

Consider the compound CN(CCCCCCOc1ccc(/C=C2\COc3ccccc3C2=O)cc1)Cc1ccccc1 . Is its IC50 strictly less than 10 µM?
condition not met

Consider CCN(CC)CCOc1cccc(/C=C2\COc3ccccc3C2=O)c1 . Does its IC50 lie strictly below 10 µM?
condition not met

Quick check: does CCN(CC)CCOc1ccc(/C=C2\COc3ccccc3C2=O)cc1 have IC50 under 10 µM?
condition not met

Is 10 µM strictly greater than the compound's reported IC50? compound: CN(C)CCOc1cccc(/C=C2\COc3ccccc3C2=O)c1
condition met
